Origin of measurements: paper PMC4336329

Readings of hERG current change (%, negative = inhibition) at 10uM for the listed molecules
target: human ether-à-go-go-related gene (hERG) potassium channel (human, UniProt Q12809); assay: primary screen, population patch clamp on CHO cells stably expressing hERG; higher = less effect of the substance;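 also: peak tail current of the secondary pulse compared with the same well before compound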
Sequence (Q12809 whole entry, looked up): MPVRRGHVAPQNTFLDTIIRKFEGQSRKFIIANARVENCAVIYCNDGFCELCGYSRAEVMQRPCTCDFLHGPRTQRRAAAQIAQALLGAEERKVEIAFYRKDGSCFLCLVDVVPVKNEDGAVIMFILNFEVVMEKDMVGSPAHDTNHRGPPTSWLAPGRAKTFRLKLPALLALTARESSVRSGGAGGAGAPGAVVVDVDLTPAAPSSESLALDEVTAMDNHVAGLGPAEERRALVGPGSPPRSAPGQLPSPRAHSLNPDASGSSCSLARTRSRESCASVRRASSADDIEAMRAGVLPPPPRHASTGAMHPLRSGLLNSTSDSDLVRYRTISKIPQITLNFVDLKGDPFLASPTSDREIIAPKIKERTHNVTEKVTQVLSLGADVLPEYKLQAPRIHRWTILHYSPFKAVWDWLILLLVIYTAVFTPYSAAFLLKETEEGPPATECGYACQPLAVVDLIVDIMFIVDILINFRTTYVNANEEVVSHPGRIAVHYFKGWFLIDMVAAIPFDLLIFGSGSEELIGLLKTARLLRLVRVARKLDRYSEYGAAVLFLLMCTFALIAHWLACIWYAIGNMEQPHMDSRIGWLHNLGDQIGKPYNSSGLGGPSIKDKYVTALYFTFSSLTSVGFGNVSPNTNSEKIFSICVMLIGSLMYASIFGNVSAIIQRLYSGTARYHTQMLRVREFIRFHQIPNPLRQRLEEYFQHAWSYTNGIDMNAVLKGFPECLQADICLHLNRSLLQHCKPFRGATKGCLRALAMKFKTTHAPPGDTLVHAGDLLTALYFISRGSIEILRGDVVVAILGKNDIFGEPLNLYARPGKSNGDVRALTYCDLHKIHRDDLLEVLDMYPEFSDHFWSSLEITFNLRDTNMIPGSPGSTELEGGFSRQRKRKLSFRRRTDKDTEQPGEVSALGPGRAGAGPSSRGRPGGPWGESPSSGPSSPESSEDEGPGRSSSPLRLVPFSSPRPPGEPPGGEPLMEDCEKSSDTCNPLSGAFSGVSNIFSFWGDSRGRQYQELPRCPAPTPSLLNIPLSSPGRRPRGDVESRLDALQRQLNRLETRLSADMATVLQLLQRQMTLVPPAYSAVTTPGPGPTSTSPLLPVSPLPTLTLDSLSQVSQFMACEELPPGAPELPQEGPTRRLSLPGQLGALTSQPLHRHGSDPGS
About 14,000 (4.5%) of roughly 310,000 compounds showed an effect of 50% or more. Effects have a minus sign here. The list comes from a sample in which strong results are over-represented; it also holds close analogues and randomly drawn compounds.
experimentalEndpoint: hERG current change (%, negative = inhibition) at 10uM (%)

• COc1ccc(/C(C)=N\n2cnnc2)cc1 = 6.86
• CCNC(=O)CSc1nnc(-c2ccc(OC)cc2)n1CC(C)C = -3.51
• C/C(=N\NC(=O)Cn1nc(C)cc1C)c1ccc([N+](=O)[O-])cc1 = -17.6
• N#Cc1cc(Nc2c(N)nc[nH]c2=O)c([N+](=O)[O-])cc1C#N = 8.95
• N#Cc1c(SCC(=O)Nc2nc3ccccc3s2)sc2c(O)cc(=O)[nH]c12 = 20.7
